measurement_protocol: Toxicity liver stage against HepG2, at 10uM
Format: cell-based
Set-up: test concentration 10 uM, cell line HepG2-A16-CD81EGFP
stated_conditions: human, HepG2-A16-CD81EGFP cells; read-out: INHIBITION
# key: entry, value: cytotoxicity at 10 µM
attribute_measured: cytotoxicity at 10 µM (%)

[
  {
    "compound": "CC[C@@H](c1ccccc1)n1c(C2CC2)n[nH]c1=O",
    "quantitative_readout": -8.67
  },
  {
    "compound": "CN(C)c1nc(N2CCCC2)nc2c1CCN(C(=O)c1ccoc1)CC2",
    "quantitative_readout": 14.9
  },
  {
    "compound": "CCC(=O)N1CCCCC1c1nc(O)c2c(n1)CN(S(C)(=O)=O)CC2 (centres undefined)",
    "quantitative_readout": 5
  },
  {
    "compound": "CC(=O)Nc1ccc(SCCCC(=O)NCC2CCCO2)nn1 (centres undefined)",
    "quantitative_readout": -8.67
  },
  {
    "compound": "Cc1ccc(CN2CC(C(=O)N3CCCC3)C3(CCOCC3)C2)s1 (centres undefined)",
    "quantitative_readout": -0.152
  },
  {
    "compound": "Cc1nc2ccc(C(=O)N(CCC#N)CCC#N)cc2nc1C",
    "quantitative_readout": -12.8
  },
  {
    "compound": "CC(=O)NCCNC(=O)Nc1cc(C(C)(C)C)sc1C#N",
    "quantitative_readout": 0.665
  },
  {
    "compound": "CN(CCCOc1ccccc1)Cc1nc2c(cnn2C)c(=O)[nH]1",
    "quantitative_readout": -3.23
  },
  {
    "compound": "CNC(=O)CCNC(=O)c1cc(C)n(-c2cccc(OC)c2)c1C",
    "quantitative_readout": -10.2
  },
  {
    "compound": "Nc1nc(SCc2ccc3c(c2)OCO3)ns1",
    "quantitative_readout": -0.681
  },
  {
    "compound": "CNC(=O)C1(CCCc2ccncc2)CCCN1 (centres undefined)",
    "quantitative_readout": -6.46
  },
  {
    "compound": "Cc1noc(C2CCC3(CCN(C(=O)c4ccncn4)CC3)O2)n1 (centres undefined)",
    "quantitative_readout": 5.76
  },
  {
    "compound": "COCCNC(=O)N1CCCCC1CNC(=O)Nc1ccccc1 (centres undefined)",
    "quantitative_readout": -0.244
  },
  {
    "compound": "O=C(NCC1(c2cccc(F)c2)CC1)N1CCC2(CCOC2)C1 (centres undefined)",
    "quantitative_readout": 2.82
  },
  {
    "compound": "Cc1ccsc1C(=O)N1CCC2(CC(C(=O)N(C)C(C)C)=NO2)C1 (centres undefined)",
    "quantitative_readout": -126
  },
  {
    "compound": "Cc1ccc(NCCCNC(=O)C2CCCN(Cc3ccco3)C2)nc1 (centres undefined)",
    "quantitative_readout": 3.15
  },
  {
    "compound": "CC(NC(=O)c1cnccn1)c1nnc2ccccn12 (centres undefined)",
    "quantitative_readout": 5.1
  },
  {
    "compound": "CS(=O)(=O)CCSc1cccc(C#N)c1",
    "quantitative_readout": -5.61
  },
  {
    "compound": "CC(Oc1ccccc1C(F)(F)F)C(=O)NCCNC(=O)C1CC1 (centres undefined)",
    "quantitative_readout": 6.91
  },
  {
    "compound": "CN(Cc1ccc(F)cc1)C(=O)c1ccoc1CN1CCNC(=O)C1",
    "quantitative_readout": -3.57
  },
  {
    "compound": "CC(=O)N1C[C@H]2CNC[C@@]2(C(=O)NCCNc2ccncc2C)C1",
    "quantitative_readout": -6.4
  },
  {
    "compound": "Cc1nc(CN2CCC(Oc3ccc(F)cc3C)(C(=O)O)CC2)co1",
    "quantitative_readout": 2.28
  },
  {
    "compound": "CC(=O)N1N=C(Cc2ccccc2)OC1C(=O)NCC(C)C (centres undefined)",
    "quantitative_readout": -4.52
  },
  {
    "compound": "CCn1ccnc1CN1CCCN(C(=O)COC2CCCCC2)CC1",
    "quantitative_readout": -11.7
  },
  {
    "compound": "Cc1nc2c(c(N3CCC(O)(CN4CCCC4)CC3)n1)CCN(C)CC2",
    "quantitative_readout": -2.84
  },
  {
    "compound": "CN(C)C(=O)N1CCC2(CC1)C(=O)N(CC1CCOC1)c1ccccc12 (centres undefined)",
    "quantitative_readout": 6.68
  },
  {
    "compound": "O=C(COCC1CCCO1)N1CCCN(Cc2ccccc2F)CC1 (centres undefined)",
    "quantitative_readout": 2.86
  },
  {
    "compound": "CC(=O)N1CCN2C(=O)N(Cc3ccc(F)cc3)C[C@H]2C1",
    "quantitative_readout": -4.26
  },
  {
    "compound": "Cc1cccc(C(=O)N2CC(C(=O)NCC3CC3)C3(CCOCC3)C2)n1 (centres undefined)",
    "quantitative_readout": 2.11
  },
  {
    "compound": "COc1ccc(OC)c(-n2cnnc2C)c1",
    "quantitative_readout": 1.24
  },
  {
    "compound": "CCCS(=O)(=O)NCC(C)c1ccc(F)c(F)c1 (centres undefined)",
    "quantitative_readout": -6.82
  },
  {
    "compound": "CC(C)c1cnc(CN(C)C2CCN(CCCc3cnn(C)c3)C2)o1 (centres undefined)",
    "quantitative_readout": -13.3
  },
  {
    "compound": "CCOc1ccc(CN2C(=O)CC(C)(C)C2=O)nc1",
    "quantitative_readout": -11.9
  },
  {
    "compound": "c1nc(N2CCCC2)cnc1C1CCNCC1",
    "quantitative_readout": -3.87
  },
  {
    "compound": "OCCN(CCO)Cc1ccc(Br)c2cccnc12",
    "quantitative_readout": 0.14
  },
  {
    "compound": "CCc1nc(C)c(C(C)N(C)CCOC)s1 (centres undefined)",
    "quantitative_readout": -6.35
  },
  {
    "compound": "Cc1cnccc1N1CCCN(C(=O)CCCS(N)(=O)=O)CC1",
    "quantitative_readout": -18.7
  },
  {
    "compound": "O=C1NC[C@@]2(C(=O)O)CN(Cc3cccc(Oc4ccccc4)c3)C[C@@H]12",
    "quantitative_readout": -5.65
  },
  {
    "compound": "CCS(=O)(=O)NCCCn1ncc2c(C)cccc21",
    "quantitative_readout": 6.8
  }
]

###

measurement_protocol: Toxicity liver stage against HepG2, at 10uM
Format: cell-based
Parameters: test concentration 10 uM, cell line HepG2-A16-CD81EGFP
stated_conditions: human, HepG2-A16-CD81EGFP cells; read-out: INHIBITION
attribute_measured: cytotoxicity at 10 µM (%)

[
  {
    "compound": "O=C(c1ccc(CN2CC(n3cccn3)C2)cc1)N1CCCC1",
    "quantitative_readout": 9.56
  },
  {
    "compound": "CN(C)CC1CN(Cc2nnc(C(C)(C)C)o2)CCO1 (stereo not given)",
    "quantitative_readout": -4.17
  },
  {
    "compound": "COc1cccc(C(=O)NCc2ccccc2S(=O)(=O)N(C)C)c1",
    "quantitative_readout": -5.52
  },
  {
    "compound": "CCOC(=O)Cn1cnc2nc3n(c2c1=O)CCC3",
    "quantitative_readout": -2.06
  },
  {
    "compound": "COc1ccc(CC(=O)N2CCCC(n3nc(C)cc3C)C2)cc1F (stereo not given)",
    "quantitative_readout": -1.76
  }
]

###

measurement_protocol: Toxicity liver stage against HepG2, at 10uM
Assay type: cell-based
Parameters: test concentration 10 uM, cell line HepG2-A16-CD81EGFP
stated_conditions: human, HepG2-A16-CD81EGFP cells; read-out: INHIBITION
cytotoxicity at 10 µM by entry:

[
  {
    "molecule": "O=C(c1ccco1)N1CCCC(c2cc(C(F)F)n3ncnc3n2)C1 (configuration not stated)",
    "unit_string": "%",
    "cytotoxicity at 10 µM": 4.4
  },
  {
    "molecule": "Cc1nc(C)c(C(=O)N2CCc3nnc(C4CCCCN4C)n3CC2)s1 (configuration not stated)",
    "unit_string": "%",
    "cytotoxicity at 10 µM": 0.642
  },
  {
    "molecule": "CC(=O)Nc1cccc(OCCNC(=O)N(C)Cc2ccccc2)c1",
    "unit_string": "%",
    "cytotoxicity at 10 µM": -13.2
  },
  {
    "molecule": "CC(Nc1cccc(COCc2ccco2)c1)C(=O)NC(N)=O (configuration not stated)",
    "unit_string": "%",
    "cytotoxicity at 10 µM": -5.65
  },
  {
    "molecule": "Cc1nnn2c1COC(CNCc1ccccn1)C2 (configuration not stated)",
    "unit_string": "%",
    "cytotoxicity at 10 µM": 0.903
  },
  {
    "molecule": "CCn1c(SC)nnc1C1CCN(C(=O)N2CCCC2)CC1",
    "unit_string": "%",
    "cytotoxicity at 10 µM": -0.78
  },
  {
    "molecule": "Cc1nccn1C1CCCN(C(=O)c2ccc3c(c2)nnn3C)C1 (configuration not stated)",
    "unit_string": "%",
    "cytotoxicity at 10 µM": -7.89
  }
]

Origin of values: ChEMBL document CHEMBL4513216
